assayConditions: in ethanol, 313.15 K
readoutType: solubility (mole fraction)
Answer as a number with no unit attached.

response.value for Nc1nc(Cl)c2[nH]cnc2n1 (field: solubility (mole fraction)) = 0.000184

====

assayConditions: in water, 318.15 K
readoutType: solubility (mole fraction)
Answer as a number with no unit attached.

response.value for Nc1nc(Cl)c2[nH]cnc2n1 (field: solubility (mole fraction)) = 3.96e-05

====

assayConditions: in isobutanol, 328.15 K
readoutType: solubility (mole fraction)
Answer as a number with no unit attached.

response.value for Nc1nc(Cl)c2[nH]cnc2n1 (field: solubility (mole fraction)) = 0.000433

====

assayConditions: in methanol, 303.15 K
readoutType: solubility (mole fraction)
Answer as a number with no unit attached.

response.value for Nc1nc(Cl)c2[nH]cnc2n1 (field: solubility (mole fraction)) = 9.43e-05
